These data points were gathered from the Human Domainome abundance scans (Beltran et al. 2025).

B1: E3 ubiquitin-protein ligase NEDD4-like, residues 539 to 589; numbered along this chain, Q96PU5 (parent)
chain: KTSLNPNDLGPLPPGWEERIHLDGRTFYIDHNSKITQWEDPRLQNPAITGP

- Variants of: B1
- Protocol summary: abundance fitness (aPCA) (normalised: wild type 0, dead -1); higher = more abundant; growth selection in yeast, the domain comes from the species named
- Condition set: Homo sapiens
Metric: abundance fitness
The reply should be a number, written without any unit.

Example results:
- W38D: 0.002
- I20H: -0.125
- R42L: -0.787
- N5Y: -0.259
- A47H: 0.235
- S3Q: -0.427

Short answer for H31C : abundance fitness was -0.149

Short answer for K34S : abundance fitness was -0.197

Short answer for N7R : abundance fitness was -0.041

Short answer for I35Y : abundance fitness was -0.291

Short answer for Y28S : abundance fitness was -0.399
